# study_system: Aβ1-42 (Homo sapiens, UniProt P05067)
# Construct: Amyloid β-peptide(1-42) and amyloid β-peptide(1-40) trifluoroacetate salts; purchased Bachem (Bubendorf, Switzerland); host or cells: synthetic peptide
# Sequence (P05067 672-713 limits assumed): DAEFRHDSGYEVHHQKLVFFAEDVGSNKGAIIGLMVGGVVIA
# protocol: Fluorescence anisotropy (polarization) titration with Aβ1-42
# Assay type: binding
pKd: −log10 of the molar value.
assay_metric: pKd

molecule | study_system | recorded_result
O=C1C(Cl)=C(NC(Cc2c[nH]c3ccccc23)C(=O)O)C(=O)c2ccccc21 (stereo not shown) [SY-83] | Aβ1-42 (Homo sapiens, UniProt P05067) | ~6.05

====

# study_system: Aβ1-42 (Homo sapiens)
# Construct: Amyloid β-peptide(1-42) and amyloid β-peptide(1-40) trifluoroacetate salts; purchased Bachem (Bubendorf, Switzerland); host or cells: synthetic peptide
# protocol: Fluorescence anisotropy (polarization) titration with Aβ1-42
# Type: binding
# condition_context: fluorescence anisotropy, PBS pH 7.4; read-out: affinity towards Aβ

compound | Kd
O=C1C=C(NC(Cc2c[nH]c3ccccc23)C(=O)O)C(=O)c2ccccc21 (stereo not shown) | ~0.09 µM

Origin of values: patent US9272993B2
